- protocol: chemical genetic growth profiling, strain panel (AID 1159580);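 also: tested at 20 µM; growth read once vehicle control cultures reached saturation at 30 °C; 1 = growth at the plate median or of vehicle wells; lower values mean less growth of the strain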
- test_context: S. cerevisiae deletion strains, growth OD, locus YLR371W, strain rom2, active compounds read low
Among all 5,500 compounds or so, about 2,000 (36%) were called active. Another 18% or so got no clear call; they are omitted. The list shows a part of the results.
readout_type: normalized growth
Answer with the value's number alone.

Per the records, this compound ( CCC(=O)OC1[C@@H]2CC3=C4CC(=O)O[C@@H](c5ccoc5)[C@]4(C)CCC3[C@@](C)(C2=O)[C@@H](CC(=O)OC)C1(C)C (stereo partly specified) ) has normalized growth equal to 1.01

Per the records, this compound ( O=C(O)C(O)C(O)C(O)C(O)C(=O)O (stereo unspecified) ) has normalized growth equal to 0.977

Per the records, this compound ( NC(C(=O)O)C(O)C(=O)O (stereo unspecified) ) has normalized growth equal to 1.02

Per the records, this compound ( N[C@@H](C(=O)O)[C@@H](O)[C@H](O)[C@H](O)CO ) has normalized growth equal to 1.02

Per the records, this compound ( CC(C)(S)[C@@H](N)C(=O)O ) has normalized growth equal to 0.994

Per the records, this compound ( COc1c(C)c2c(c(O)c1C/C=C(\C)CCC(=O)O)C(=O)OC2 ) has normalized growth equal to 0.955

Provenance of the data: PubChem BioAssay AID1159580
